assay.explanation: Metabolic stability in mouse liver microsomes
Type: in vitro ADME
Hepatic extraction ratio EH Mouse values, listed per item
Form: value (number only, do not type unit).

compound	measurement
CO[C@H]1O[C@@H]2O[C@@]3(C)CC[C@H]4[C@H](C)CC[C@@H]([C@H]1C)[C@@]24OO3	0.8
C[C@@H]1CC[C@H]2[C@@H](C)C(=O)N[C@@H]3O[C@@]4(C)CC[C@@H]1[C@]32OO4	0.3
C[C@H]1[C@@H](O)O[C@@H]2O[C@@]3(C)CC[C@H]4[C@H](C)CC[C@@H]1[C@@]24OO3 [DHA 2, dihydroartemisinin]	0.4
C[C@H]1[C@H](N2CCS(=O)(=O)CC2)O[C@@H]2O[C@@]3(C)CC[C@H]4[C@H](C)CC[C@@H]1[C@@]24OO3	0.9
C[C@H]1[C@H](N2C=CS(=O)(=O)CC2)O[C@@H]2O[C@@]3(C)CC[C@H]4[C@H](C)CC[C@@H]1[C@@]24OO3	0.3

Please give the measured Hepatic extraction ratio EH Mouse for this compound: C[C@H]1[C@H](NS(N)(=O)=O)O[C@@H]2O[C@@]3(C)CC[C@H]4[C@H](C)CC[C@@H]1[C@@]24OO3 [Sulfamide 7]
0.3

C[C@H]1[C@H](N2CCSCC2)O[C@@H]2O[C@@]3(C)CC[C@H]4[C@H](C)CC[C@@H]1[C@@]24OO3 [Artemiside 5, artemiside] , same question.
0.9

C[C@H]1[C@H](N2CCN(C(=O)Nc3ccc(F)cc3)CC2)O[C@@H]2O[C@@]3(C)CC[C@H]4[C@H](C)CC[C@@H]1[C@@]24OO3 , same question.
0.6

Source: paper PMC8284440
